Assay: Confirmation Concentration-Response Assay for Modulators of Lamin A Splicing
Settings: HeLa lamin A splicing GFP/RFP minigene, Acumen, 48 h; RFP channel at top concentration, at 46.1 µM
Excerpt: NCGC Assay Overview: Hutchinson-Gilford Progeria Syndrome (HGPS) is a pediatric premature aging disease caused by a spontaneous mutation in the lamin A/C (LMNA) gene. The mutation activates a cryptic splice site in the LMNA pre-mRNA which results in production of a pre-lamin A protein that cannot be processed properly. […] References: Bowen, W. P.; Wylie, P. G. Application of Laser-Scanning Fluorescence Microplate Cytometry in High Content Screening. […]
Results filed as inconclusive are left out.
Where RFP activity equals or exceeds 10%, the correct label is Yes; where it does not, the label is No.

- molecule: "Cc1nc2ccc(NC(=O)c3ccc(Cl)c(S(=O)(=O)N(C)c4ccccc4)c3)cc2s1"
  classification: "No"
- molecule: "Cc1cc(Nc2ccccc2)nc2cc(O)ccc12"
  classification: "Yes"
- molecule: "O=C(CCCN1CC=C(n2c(=O)[nH]c3ccccc32)CC1)c1ccc(F)cc1"
  classification: "No"
- molecule: "Cc1cc(/C=N/n2cnnc2)c(C)n1-c1cccc(C(=O)O)c1"
  classification: "No"
- molecule: "Cc1noc(C)c1-c1ccc2ncnc(NCc3cccc(-c4ccccc4)c3)c2c1"
  classification: "Yes"
- molecule: "Cc1ccc(S(=O)(=O)N(CC(=O)Nc2ccccc2C(=O)O)c2cccc(Cl)c2C)cc1"
  classification: "Yes"
- molecule: "O=C(c1ccc(Cl)c(Cl)c1)N1CCC(=O)N(C(COCc2cccc(C(F)(F)F)c2)Cc2ccccc2)CC1 (stereo not given)"
  classification: "Yes"
- molecule: "Cc1noc(C)c1-c1ccc2ncnc(NCc3ccc(C(C)(C)C)cc3)c2c1"
  classification: "No"
- molecule: "CC(C)(C)n1nnnc1C(c1ccc2ncccc2c1)N1CCSCC1 (stereo not given)"
  classification: "No"
- molecule: "CC1=NS(=O)(=O)c2cc(Cl)ccc2N1"
  classification: "No"
